- system_under_test: Anoctamin1 (ANO1) (Homo sapiens)
- Sequence (Q5XXA6 whole entry): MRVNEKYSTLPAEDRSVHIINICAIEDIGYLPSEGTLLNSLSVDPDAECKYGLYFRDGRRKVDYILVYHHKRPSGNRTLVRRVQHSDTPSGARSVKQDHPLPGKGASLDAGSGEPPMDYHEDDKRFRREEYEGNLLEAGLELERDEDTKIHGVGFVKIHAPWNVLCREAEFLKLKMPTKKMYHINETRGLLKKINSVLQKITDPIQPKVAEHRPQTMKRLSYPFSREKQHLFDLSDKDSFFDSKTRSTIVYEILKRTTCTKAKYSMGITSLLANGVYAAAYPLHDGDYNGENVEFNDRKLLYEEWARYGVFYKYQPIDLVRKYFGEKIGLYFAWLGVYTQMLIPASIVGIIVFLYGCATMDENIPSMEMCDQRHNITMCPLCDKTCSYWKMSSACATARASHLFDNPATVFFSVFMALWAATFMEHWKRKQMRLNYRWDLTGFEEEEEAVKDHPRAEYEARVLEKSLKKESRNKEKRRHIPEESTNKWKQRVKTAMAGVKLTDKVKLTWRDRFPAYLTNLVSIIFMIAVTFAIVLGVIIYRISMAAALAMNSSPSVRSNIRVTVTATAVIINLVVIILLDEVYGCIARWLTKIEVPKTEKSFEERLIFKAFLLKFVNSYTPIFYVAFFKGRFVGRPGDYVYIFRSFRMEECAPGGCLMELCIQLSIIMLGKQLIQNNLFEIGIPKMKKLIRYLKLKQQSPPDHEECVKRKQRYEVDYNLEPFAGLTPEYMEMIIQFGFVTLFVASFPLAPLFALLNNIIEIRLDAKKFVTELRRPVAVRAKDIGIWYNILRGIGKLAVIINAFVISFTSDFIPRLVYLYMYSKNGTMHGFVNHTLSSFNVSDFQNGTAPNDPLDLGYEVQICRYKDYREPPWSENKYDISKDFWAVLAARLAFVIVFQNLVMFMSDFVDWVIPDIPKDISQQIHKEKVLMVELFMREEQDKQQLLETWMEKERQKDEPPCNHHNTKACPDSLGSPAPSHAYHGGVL
- measurement_notes: apical membrane (short-circuit) current in FRT cells expressing human ANO1; also YFP quenching assay
measured_attribute: pIC50
Give bare numbers, as −log10 of the molar value.

Query string: Let me know recorded pIC50 for COc1cc2c(c(OC)c1C(=O)CC(O)c1ccccc1)C=CC(C)(C)O2 (racemic) [compound 2, Ani-D2] , thanks.
Result string: 5.58
